Tested on: asexual parasites of the chloroquine-sensitive 3D7 strain of P. falciparum
Test: asexual blood stage assay
Type: cell-based
Settings: Plasmodium falciparum, 3D7, read-out: asexual activity (IC50, text)
The following molecules are shown together with reported IC50 values.

- Smiles data: "Cn1c(=O)n(-c2cccc(C(F)(F)F)c2)c2c3cc(-c4cccc(N)c4)ccc3ncc21"
  Result: "< 100 nM"

Query: May I ask what IC50 has been recorded for Cn1c(=O)n(-c2cccc(C(F)(F)F)c2)c2c3cc(-c4ccc(N)cc4)ccc3ncc21 ?
Result: < 100 nM
